src = patent US12448433B2

Target: DPB1*04:02
Experiment: Peptide binding to HLA-DP allele, competition assay
Design: species or system human
Readout: pIC50
Entry type: numeric. Quantity: pIC50, the -log10 of concentration in molar units.

Some compounds with known pIC50 results, for comparison:
Compound: CC[C@H](C)[C@H](NC(=O)[C@H](CC(C)C)NC(=O)[C@H](CO)NC(=O)[C@@H](NC(=O)[C@@H](NC(=O)[C@@H](N)CCCCN)[C@@H](C)CC)C(C)C)C(=O)N[C@@H](CCCCN)C(=O)N[C@@H](CC(N)=O)C(=O)N[C@@H](CC(C)C)C(=O)N[C@@H](CC(C)C)C(=O)N[C@H](C(=O)N[C@@H](C)C(=O)N[C@@H](CC(C)C)C(=O)N[C@@H](CCCCN)C(=O)N[C@@H](CC(=O)O)C(=O)O)C(C)C [Peptide 3563.0028]
pIC50: 6.81
//
Compound: CC(C)C[C@H](NC(=O)[C@H](CCC(N)=O)NC(=O)[C@H](C)NC(=O)[C@H](CC(N)=O)NC(=O)[C@H](C)NC(=O)[C@H](CCC(N)=O)NC(=O)[C@H](Cc1ccccc1)NC(=O)[C@H](CC(=O)O)NC(=O)[C@H](Cc1ccccc1)NC(=O)[C@H](CC(N)=O)NC(=O)[C@H](CC(C)C)NC(=O)[C@@H](NC(=O)[C@H](CCC(=O)O)NC(=O)[C@@H](N)CC(C)C)C(C)C)C(=O)N[C@@H](CO)C(=O)O [Peptide 3563.0017]
pIC50: 6.23
//
Compound: CC[C@H](C)[C@H](NC(=O)[C@H](CC(C)C)NC(=O)[C@H](CC(N)=O)NC(=O)[C@@H](NC(=O)[C@@H](NC(=O)[C@H](Cc1ccccc1)NC(=O)[C@H](Cc1c[nH]cn1)NC(=O)[C@H](CCCCN)NC(=O)[C@@H](NC(=O)[C@@H](N)Cc1c[nH]cn1)C(C)C)C(C)C)[C@@H](C)CC)C(=O)NCC(=O)N[C@@H](CC(=O)O)C(=O)N[C@@H](Cc1ccccc1)C(=O)N[C@@H](CCC(=O)O)C(=O)N[C@H](C(=O)O)C(C)C [Peptide 3563.0014]
pIC50: 6.83

What value of pIC50 on DPB1*04:02 does CC[C@H](C)[C@H](NC(=O)[C@H](Cc1ccc(O)cc1)NC(=O)[C@H](CCC(N)=O)NC(=O)[C@H](Cc1c[nH]cn1)NC(=O)[C@@H](NC(=O)[C@@H](N)CCC(N)=O)[C@@H](C)CC)C(=O)N[C@@H](CCSC)C(=O)N[C@@H](C)C(=O)N[C@@H](CC(C)C)C(=O)N[C@@H](CCCNC(=N)N)C(=O)N[C@@H](CCC(=O)O)C(=O)N[C@@H](CCC(=O)O)C(=O)N[C@@H](Cc1ccc(O)cc1)C(=O)N[C@@H](Cc1ccccc1)C(=O)N[C@@H](CC(=O)O)C(=O)O [Peptide 3563.0027] have?
7.29

Try the compound CC[C@H](C)[C@H](NC(=O)[C@H](CC(=O)O)NC(=O)[C@H](CC(C)C)NC(=O)[C@H](CC(C)C)NC(=O)[C@H](CCC(=O)O)NC(=O)[C@@H](N)CCC(N)=O)C(=O)N[C@@H](C)C(=O)N[C@@H](CC(N)=O)C(=O)N[C@@H](Cc1ccc(O)cc1)C(=O)N[C@@H](CC(C)C)C(=O)N[C@@H](CCSC)C(=O)N[C@@H](CCC(=O)O)C(=O)N[C@@H](CCC(N)=O)C(=O)N[C@H](C(=O)N[C@@H](CCC(N)=O)C(=O)O)[C@@H](C)CC [Peptide 3563.0003]
6.74
